Source of measurements: patent US8895581B2

# target desc: Recombinant human PDK1 enzyme (aa 52-556) (Homo sapiens (Human), UniProt O15530)
# Sequence (O15530 52-556): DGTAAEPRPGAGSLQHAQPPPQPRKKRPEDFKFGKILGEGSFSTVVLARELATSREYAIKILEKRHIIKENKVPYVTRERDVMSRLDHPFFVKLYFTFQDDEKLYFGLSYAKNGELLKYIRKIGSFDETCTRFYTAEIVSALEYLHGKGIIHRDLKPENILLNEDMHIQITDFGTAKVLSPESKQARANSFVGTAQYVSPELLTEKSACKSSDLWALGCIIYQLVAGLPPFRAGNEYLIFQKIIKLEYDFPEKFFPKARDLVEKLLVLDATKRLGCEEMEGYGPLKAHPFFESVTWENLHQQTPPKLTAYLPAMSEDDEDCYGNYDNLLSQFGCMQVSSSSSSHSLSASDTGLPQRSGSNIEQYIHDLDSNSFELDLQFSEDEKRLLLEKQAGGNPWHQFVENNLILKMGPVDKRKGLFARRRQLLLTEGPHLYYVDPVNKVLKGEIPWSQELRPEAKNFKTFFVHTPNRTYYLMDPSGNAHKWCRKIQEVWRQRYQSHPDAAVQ
# test description: PDK1 kinase assay
# test context: 25 μM ATP solution with gamma-P33-ATP, PDKtide substrate, 90 min at RT
measured metric: IC50 (nM)
Enter your answer as a number in nM; do not include the unit.

Below, each entry is followed by its recorded IC50 result.
CN(C)[C@H]1CC[C@H](n2cnc3cnc4ccc(C#CCNC(=O)c5cccn([C@@H](CO)c6cccc(F)c6)c5=O)cc4c32)CC1: 1
Cc1nc2cnc3ccc(C#CCNC(=O)c4cccn(CC5C[C@@H]6CC[C@H]5C6)c4=O)cc3c2n1C(C)C (stereo partly drawn): 15

[in] Input `Cc1nc2cnc3ccc(C#CCNC(=O)c4cccn([C@@H](C)c5ccc(F)c(F)c5)c4=O)cc3c2n1[C@H]1CC[C@@H](N(C)C)CC1` , output reported IC50.
[out] 1
